As shown below, each of these variants has a reported protein stability index value.
B1: RHOBTB3 (parent)
chain: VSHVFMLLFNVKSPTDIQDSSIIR

Variants of: B1
MEASUREMENT_DESCRIPTION: protein stability index of a GFP-peptide fusion (GPS, HEK-293T) (PSI 1-6); higher = more stable;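 note: lentivirally expressed fusions sorted by FACS into six bins by GFP to DsRed ratio, PSI derived from sequencing read proportions per bin multiplied by bin number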
RUN_CONDITIONS: c terminus: a fixed tail appended
Give a plain numeric answer without units written out.

Field: example entries. Status: answers known.
>  <VARIANT_IDENTIFIER>
S20I

>  <protein stability index>
2.98

$$$$
>  <VARIANT_IDENTIFIER>
D19Q

>  <protein stability index>
2.96

$$$$
>  <VARIANT_IDENTIFIER>
R24S

>  <protein stability index>
3.05

$$$$

Inquiry: Specify protein stability index for S21F and stop.
Reply text: 3.07
